- assayed.system: human SGLT1 (Homo sapiens, UniProt P13866)
- Sequence (P13866 whole entry): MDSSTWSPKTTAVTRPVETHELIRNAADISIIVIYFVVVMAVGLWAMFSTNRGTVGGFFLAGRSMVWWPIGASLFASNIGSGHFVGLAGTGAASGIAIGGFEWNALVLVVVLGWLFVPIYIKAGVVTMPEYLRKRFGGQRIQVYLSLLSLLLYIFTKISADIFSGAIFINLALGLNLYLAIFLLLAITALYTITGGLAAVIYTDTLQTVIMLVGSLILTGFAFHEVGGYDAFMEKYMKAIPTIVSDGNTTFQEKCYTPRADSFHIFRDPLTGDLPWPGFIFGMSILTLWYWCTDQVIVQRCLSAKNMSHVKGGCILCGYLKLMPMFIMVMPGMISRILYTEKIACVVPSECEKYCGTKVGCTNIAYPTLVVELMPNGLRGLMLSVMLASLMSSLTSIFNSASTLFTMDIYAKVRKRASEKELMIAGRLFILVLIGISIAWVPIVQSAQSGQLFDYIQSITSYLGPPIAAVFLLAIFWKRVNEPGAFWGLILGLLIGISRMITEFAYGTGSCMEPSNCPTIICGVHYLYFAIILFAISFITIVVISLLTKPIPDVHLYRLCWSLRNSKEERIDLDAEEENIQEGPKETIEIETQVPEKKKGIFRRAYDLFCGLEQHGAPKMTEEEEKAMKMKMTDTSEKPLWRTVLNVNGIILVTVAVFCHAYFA
- assay.comment: Sodium-dependent 14C-AMG uptake assay in CHO-K1 cells expressing human SGLT1
- assay.setup: n=5
metric: pIC50
Give bare numbers, as −log10 of the molar value.

Problem: Under human SGLT1 (Homo sapiens, UniProt P13866): pIC50 value of "Cc1cccc2c1c(Cc1ccc(OCCCN3CCCC4(CCN(C(=O)CNC(=O)NCC(C)C)CC4)C3)cc1)cn2[C@@H]1O[C@H](CO)[C@@H](O)[C@H](O)[C@H]1O" ?
Result: 7.45
